Biological target: purified Z-AAT protein (Homo sapiens, UniProt P01009, E366K)
Construct: Purified Z-AAT protein from human plasma
Sequence (P01009 25-418 E366K): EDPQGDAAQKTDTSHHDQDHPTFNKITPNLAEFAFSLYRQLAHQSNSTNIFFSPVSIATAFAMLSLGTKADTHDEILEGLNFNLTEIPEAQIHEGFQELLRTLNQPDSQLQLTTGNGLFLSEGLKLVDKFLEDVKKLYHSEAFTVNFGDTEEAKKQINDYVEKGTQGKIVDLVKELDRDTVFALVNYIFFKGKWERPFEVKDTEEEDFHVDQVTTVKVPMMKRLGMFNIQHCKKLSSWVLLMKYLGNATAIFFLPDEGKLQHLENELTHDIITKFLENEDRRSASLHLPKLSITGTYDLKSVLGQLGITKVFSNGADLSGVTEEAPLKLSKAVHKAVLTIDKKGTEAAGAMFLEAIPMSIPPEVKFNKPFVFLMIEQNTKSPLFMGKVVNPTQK
Assay: Biochemical Assay (Z-AAT Elastase Activity Assay)
Conditions: purified Z-AAT pre-incubated with compound 1 hour, then hNE; N.D. = activity not detected up to 30 μM
pIC50: −log10 of the molar value.

{"columns": ["compound", "pIC50"],
 "data": [
  ["Cc1cc(-n2c(C(C)(C)CC#N)c(-c3ccc(C(=O)O)cc3)c3c(O)c(N)ccc32)ccc1F", "< 4.52"],
  ["Cc1cc(-n2c(C3CCOCC3)c(-c3ccc(C(=O)O)cc3)c3c(O)cc(F)cc32)ccc1F", "> 5.70"],
  ["COCC(C)(COC)c1c(-c2ccc(C(=O)O)cc2)c2c(O)cccc2n1-c1ccc(F)cc1", "< 5.30"],
  ["Cc1cc(-n2c(C3CCOCC3)c(-c3ccc(C(=O)O)cc3)c3c(O)cccc32)ccc1F", "< 5.30"],
  ["COc1cc(-n2c(C3(CC#N)CCC3)c(-c3ccc(C(=O)O)cc3)c3c(O)cccc32)ccc1F", "< 5.30"],
  ["COCC(=O)N1CCCC(c2c(-c3ccc(C(=O)O)cc3)c3c(O)cccc3n2-c2ccc(F)cc2)C1 (stereo not shown)", "< 4.52"],
  ["CC1CC(c2c(-c3ccc(C(=O)O)cc3)c3c(O)cc(F)cc3n2-c2ccc(F)c(F)c2)CC(C)O1 (stereo not shown)", "5.30 to 5.70"]
]}

----------
Target: NL20 human bronchial epithelial cells expressing human Z-AAT (Homo sapiens, UniProt P01009, E366K)
Construct: doxycycline added with compounds)
Sequence (P01009 25-418 E366K): as above
Experiment: AAT Function Assay (MSD Assay NL20-SI Cell Line)
Settings: read-out: NL20 Functional EC50
pEC50: −log10 of the molar value.
pEC50 values for the compounds below.
quantity kind: pEC50

{"columns": ["compound", "test value"],
 "data": [
  ["CC(C)(c1cnco1)c1c(-c2ccc(C(=O)O)cc2)c2c(O)cccc2n1-c1ccc(F)cc1 [Compound 132]", "> 6.30"],
  ["COCC(C)(C)c1c(CCC(=O)O)c2c(O)cc(F)cc2n1-c1ccc(F)c(F)c1 [Compound 400]", "5.70 to 6.30"],
  ["Cc1cc(-n2c(C3CCOCC3)c([C@H]3C[C@@](C)(C(=O)O)C3)c3cc(F)ccc32)ccc1F [Compound W8]", "< 5.70"],
  ["O=C(O)c1ccc(-c2c(C(F)(F)F)n(-c3ccc(F)cc3)c3cccc(O)c23)cc1F [Compound 115]", "5.70 to 6.30"],
  ["O=C(O)c1ccc(-c2c(C3CCOCC3)n(-c3ccc(F)c(F)c3)c3cc(F)cc(O)c23)c(F)c1 [Compound 9]", "> 6.30"],
  ["COCC1(c2c(-c3ccc(C(=O)O)cc3)c3c(O)cccc3n2-c2ccc(F)c(F)c2)COC1 [Compound 258]", "< 5.70"],
  ["COc1cc(-n2c(C3CCOCC3)c(-c3ccc(C(=O)O)c(O)c3)c3c(O)cccc32)ccc1F [Compound 510]", "5.70 to 6.30"],
  ["COc1cc(-n2c(C(C)C)c(-c3ccc(C(=O)O)c(OC)c3)c3c(O)cc(F)cc32)ccc1F [Compound 524]", "> 6.30"],
  ["Cc1cc(-n2c(C3CCOCC3)c(CCC(=O)O)c3cc(F)ccc32)ccc1F [Compound W5]", "< 5.70"],
  ["COCC(C)(C)c1c(-c2ccc(C(=O)O)cc2)c2c(N)cc(F)cc2n1-c1ccc(F)cc1 [Compound 433]", "> 6.30"],
  ["COCC(C)(C)c1c(-c2ccc(C(=O)O)cc2C)c2c(O)cc(Cl)cc2n1-c1ccc(F)cc1 [Compound 217]", "5.70 to 6.30"],
  ["O=C(O)c1ccc(-c2c(C3CCOCC3)n(-c3ccc(F)c(F)c3)c3cc(Cl)cc(O)c23)cc1F [Compound 242]", "> 6.30"],
  ["C[C@@H](O)C(=O)N1CC(n2c(C3CCOCC3)c(-c3ccc(F)cc3)c3cccc(O)c32)C1 [Compound 385]", "< 5.70"],
  ["CC(C)c1c(-c2ccc(C(=O)O)cc2)c2c(O)cncc2n1-c1ccc(F)cc1 [Compound 426]", "< 5.70"],
  ["COCC1(c2c(-c3cc(OC)c(C(=O)O)cc3F)c3c(O)c(F)ccc3n2-c2ccc(F)c(F)c2)CCC1 [Compound 488]", "> 6.30"],
  ["N#C[C@H]1CC[C@@H](c2c(-c3ccc(C(=O)O)cc3)c3c(O)cccc3n2-c2ccc(F)cc2)CC1 [Compound 181]", "< 5.70"],
  ["COCC(C)c1c(-c2ccc(C(=O)O)cc2)c2c(O)cc(F)cc2n1-c1ccc(F)c(F)c1 (single isomer, unassigned) [Compound 280]", "> 6.30"],
  ["COCC(C)(C)c1c(-c2ccc(C(=O)O)c(F)c2)c2c(O)cccc2n1-c1ccc(F)cc1 [Compound 139]", "> 6.30"],
  ["O=C(O)c1ccc(-c2c(C3CCOCC3)n(-c3ccc(F)c(F)c3)c3ccc(F)c(O)c23)cc1F [Compound 7]", "> 6.30"]
]}

----------
Target: NL20 human bronchial epithelial cells expressing human Z-AAT (Homo sapiens, UniProt P01009, E366K)
Construct: doxycycline added with compounds)
Test: AAT Function Assay (MSD Assay NL20-SI Cell Line)
Details: read-out: NL20 Functional EC50
pEC50: −log10 of the molar value.
pEC50 by entry:
quantity kind: pEC50

{"columns": ["compound", "test value"],
 "data": [
  ["O=C(O)c1ccc(-c2c(C3CCOCC3)n(-c3ccc(F)cc3)c3ccc(F)c(O)c23)c(F)c1 [Compound 99]", "> 6.30"],
  ["Cc1cc(-n2c(C(C)(C)CC#N)c(-c3ccc(C(=O)O)cc3F)c3c(O)c(F)ccc32)ccc1F [Compound 164]", "> 6.30"],
  ["COCC(C)(C)c1c(-c2ccc(C(=O)O)s2)c2c(O)cc(F)cc2n1-c1ccc(F)c(C)c1 [Compound 351]", "> 6.30"],
  ["CC1(c2c(-c3ccc(C(=O)O)cc3)c3c(O)cc(F)cc3n2-c2ccc(F)c(F)c2)CCOCC1 [Compound 265]", "> 6.30"],
  ["O=C(O)c1ccc(-c2c(C3(O)CCCC3)n(-c3ccc(F)c(F)c3)c3cc(F)cc(O)c23)cc1 [Compound 463]", "> 6.30"],
  ["Cc1cc(-n2c(C(C)(C)CC#N)c(-c3ccc(C(=O)O)c(F)c3)c3c(O)cc(Cl)cc32)ccc1F [Compound 374]", "> 6.30"],
  ["Oc1cccc2c1c(-c1cn[nH]c1)c(C1CCOCC1)n2-c1ccc(F)cc1 [Compound 394]", "< 5.70"],
  ["CC(C)(CF)c1c(-c2ccc(C(=O)O)cc2)c2c(O)cc(F)cc2n1-c1ccc(F)c(F)c1 [Compound 290]", "> 6.30"],
  ["COc1cc(-n2c(C(C)(C)CC#N)c(-c3ccc(C(=O)O)c(C)c3)c3c(O)cc(F)cc32)ccc1F [Compound 401]", "> 6.30"],
  ["O=C(O)c1ccc(-c2c3c(O)cccc3n(-c3ccc(F)cc3)c2[C@H]2CC[C@H](O)CC2)cc1 [Compound 190]", "5.70 to 6.30"],
  ["COCC(C)(C)c1c(-c2ccc(C(=O)O)cc2)c2c(O)ccc(F)c2n1-c1ccc(F)cc1 [Compound 216]", "5.70 to 6.30"],
  ["CC(C)c1c(C2CC3(CC(C(=O)O)C3)C2)c2c(F)cccc2n1-c1ccc(F)cc1 (stereo not shown) [Compound W19]", "< 5.70"],
  ["CC(C)(C#N)Cc1c(-c2ccc(C(=O)O)cc2)c2c(O)cccc2n1-c1ccc(F)cc1 [Compound 153]", "< 5.70"],
  ["O=C(O)c1ccc(-c2c(C3CC4CCC(C3)O4)n(-c3ccc(F)c(F)c3)c3ccc(F)c(O)c23)cc1 (stereo not shown) [Compound 267]", "> 6.30"],
  ["COCC1(c2c(-c3ccc(C(=O)O)c(O)c3)c3c(O)cc(Cl)cc3n2-c2ccc(F)c(OC)c2)CCC1 [Compound 509]", "> 6.30"],
  ["Cc1ccc(-n2c(C(C)(C)CC#N)c(-c3ccc(C(=O)O)cc3)c3c(O)cc(F)cc32)cc1F [Compound 412]", "5.70 to 6.30"]
]}

----------
Listed here: items and their measured EC50.
Molecular target: NL20 human bronchial epithelial cells expressing human Z-AAT (Homo sapiens, UniProt P01009, E366K)
Construct: doxycycline added with compounds)
Test: AAT Function Assay (MSD Assay NL20-SI Cell Line)
Details: read-out: NL20 Functional EC50

{"columns": ["molecule", "EC50"],
 "data": [
  ["COCC1(c2c(-c3ccc(C(=O)O)cc3)c3c(O)c(F)ccc3n2-c2ccc(F)c(C)c2)COC1 [Compound 313]", "500 to 2000 nM"],
  ["CCc1cc(-c2c(C(C)(C)CC#N)n(-c3ccc(F)c(C)c3)c3cc(F)cc(O)c23)ccc1C(=O)O [Compound 458]", "< 500 nM"],
  ["CC(C)(CC#N)c1c(-c2ccc(C(=O)O)cc2)c2c(O)cc(Cl)cc2n1-c1ccc(F)c(F)c1 [Compound 295]", "< 500 nM"],
  ["Cc1cc(-n2c(C(C)C)c(C3CC(C)(C(=O)O)C3)c3c(O)cccc32)ccc1F (centres unmarked) [Compound 56]", "500 to 2000 nM"],
  ["O=C(O)c1cc(-c2c(C3CCOCC3)n(-c3ccc(F)cc3)c3cccc(O)c23)cc(C(F)(F)F)c1 [Compound 74]", "500 to 2000 nM"],
  ["CC(C)(CC#N)c1c(-c2ccc(C(=O)O)cc2F)c2c(O)c(F)ccc2n1-c1ccc(F)c(F)c1 [Compound 163]", "< 500 nM"],
  ["CC(c1c(-c2ccc(C(=O)O)cc2)c2c(O)cccc2n1-c1ccc(F)cc1)C1CCOC1 (single isomer, unassigned) [Compound 208]", "< 500 nM"],
  ["Cc1cc(-n2c(C(C)C)c(-c3ccc(C(=O)O)nc3)c3cc(F)ccc32)ccc1F [Compound B2]", "> 2000 nM"],
  ["Cc1cc(-n2c(C3CCOCC3)c(C3CC(C(=O)O)C3)c3c(O)cccc32)ccc1F (centres unmarked) [Compound 38]", "500 to 2000 nM"],
  ["COC12CCC(c3c(-c4ccc(C(=O)O)cc4)c4c(O)cc(F)cc4n3-c3ccc(F)c(F)c3)(CC1)C2 [Compound 264]", "< 500 nM"],
  ["Cc1cc(-n2c(C(C)C)c(-c3ccc(C(=O)O)s3)c3cc(F)ccc32)ccc1F [Compound B6]", "> 2000 nM"]
]}
